Tested on: Monocotyledonous and dicotyledonous test plants
testMethodNotes: Herbicidal action before emergence of the plants (pre-emergence action)
Assay type: in vivo
cond: Cyperus; 2000 g/ha; evaluated after 3 weeks; nine-step scale
Below, each of the compounds is paired with its reported pre-emergence action, Cyperus value.
readout: pre-emergence action, Cyperus

1. CCC1CC(C)(C)C(=O)C(C(=O)c2ccc(C(F)(F)F)nc2C)=C1O (centres unmarked) [Compound A2-B1089] : 1
2. Cc1nc(C(F)(F)F)ccc1C(=O)C1=C(O)CCC2(CCC2)C1=O [Compound A2-C146] : 1
3. Cc1nc(C(F)(F)F)ccc1C(=O)C1=C(O)C(C(C)C)CC(C)C1=O (centres unmarked) [Compound A2-B49] : 2
4. Cc1nc(C(F)(F)Cl)ccc1C(=O)C1=C(O)CCCC1=O [Compound A94-B1] : 1
5. Cc1cc(C(=O)C2=C(O)CCCC2=O)c(C)nc1C(F)(F)F [Compound A184-B1] : 2
6. COCc1nc(C(F)(F)F)ccc1C(=O)C1=C([S+]([O-])c2ccccc2)CCCC1=O (centres unmarked) [Compound A8-B1103] : 1
7. CCc1nc(C(F)(F)F)ccc1C(=O)C1=C(O)C(C)(C)CCC1=O [Compound A3-B24] : 1
8. Cc1c(C(=O)C2=C(O)C(C)(C)C(=O)C(C)(C)C2=O)ccc(C(F)(F)F)[n+]1[O-] [Compound A1210-B354] : 2
